experiment description: Fluorescence quantum yields and fluorescence lifetimes in water and methanol
Type: physicochemical
measurement setup: CH3OH; Table 2
Let's look at some compounds and their measured φf in CH3OH.
Please give only the number in your answer, with no unit.

Data request: Quick one: φf in CH3OH for CCOC(=O)c1ccc(C#Cc2cc(OCCC[N+](C)(C)C)c(C#Cc3ccccc3)cc2OCCC[N+](C)(C)C)cc1.[Cl-].[Cl-] ?
Data returned: 0.68

Data request: Quick one: φf in CH3OH for CCOC(=O)c1ccc(C#Cc2cc(OCCC[N+](C)(C)C)c(C#Cc3ccc(C(=O)OCC)cc3)cc2OCCC[N+](C)(C)C)cc1.[Cl-].[Cl-] ?
Data returned: 0.75

Data request: Quick one: φf in CH3OH for C[N+](C)(C)CCCOc1cc(C#Cc2ccccc2)c(OCCC[N+](C)(C)C)cc1C#Cc1ccccc1.[Cl-].[Cl-] ?
Data returned: 0.82

Data request: Quick one: φf in CH3OH for C[N+](C)(C)CCCOc1cc(C#Cc2ccc(C(=O)[O-])cc2)c(OCCC[N+](C)(C)C)cc1C#Cc1ccc(C(=O)[O-])cc1 ?
Data returned: 0.74
